details: 303.15 K; 100 kPa
# reported log10(viscosity); entries follow
# values: log10(viscosity), units mPa·s

Study these solved cases before continuing.
mol.smiles: CCCCCCO
measured: 0.59
//
mol.smiles: CCCCCCCCCCCCCC[P+](CCCCCC)(CCCCCC)CCCCCC.c1nnc[n-]1
measured: 2.82
//
mol.smiles: CC(=O)CC(C)C
measured: -0.28

So what's the measured log10(viscosity) for this one? CC(C)CC(=O)CC(C)C
-0.07

Here is the next compound: CCC12CC3CC(CC(C3)C1)C2
0.69

====

details: 293.15 K; 101 kPa
metric: viscosity (mPa·s)
The reply should be a number in mPa·s, with the unit left off.

mol.smiles: CC(=O)CC(C)C
metric: viscosity
result.units: mPa·s
measured: 0.575
//
mol.smiles: CCCC(=O)[O-].CC[NH+](CC)CCO
metric: viscosity
result.units: mPa·s
measured: 71.57

So what's the measured viscosity for this one? CCOCC
0.239

Here is the next molecule: CCCCCCO
4.963

Here is the next molecule: CC(C)CC(C)(C)C
0.498

====

details: 303.15 K; 101 kPa
Outcome: t for viscosity of at least 10 mPa·s; f for anything lower.

Consider the following illustrative entries.
molecule: CCOCC
group.label: f
--
molecule: CCC(C)N (stereo not given)
group.label: f

Threshold query (viscosity >= 10 mPa·s) on OCCOc1ccccc1
t

Here is the next molecule: CCCC(=O)[O-].CC[NH+](CC)CCO
t

Here is the next molecule: O=C(OCc1ccccc1)c1ccccc1O
f

====

details: 308.15 K; 100 kPa
# reported viscosity; entries follow
The reply should be a number in mPa·s, with the unit left off.

So what's the measured viscosity for this one? CCCCCCCCCCCCCC[P+](CCCCCC)(CCCCCC)CCCCCC.c1nnc[n-]1
477

Here is the next compound: CC(C)CC(C)(C)C
0.45

Here is the next compound: CC(C)CC(=O)CC(C)C
0.81

Here is the next compound: CCC12CC3CC(CC(C3)C1)C2
4.365

====

details: 298.15 K; 101 kPa
metric: viscosity (mPa·s)
The reply should be a number in mPa·s, with the unit left off.

Study these solved cases before continuing.
mol.smiles: CC=Cc1ccc2c(c1)OCO2
viscosity / mPa·s: 3.981
//
mol.smiles: CCCC(=O)[O-].CC[NH+](CC)CCO
viscosity / mPa·s: 53.96
//
mol.smiles: CCS
viscosity / mPa·s: 0.2091

Turning now to a further compound:
So what's the measured viscosity for this one? CCCCCC(=O)O
2.814

====

details: 323.15 K; 100 kPa
± gives the uncertainty stated by the source.
metric: viscosity

Study these solved cases before continuing.
mol.smiles: CCCCCCCCCCCCCC[P+](CCCCCC)(CCCCCC)CCCCCC.c1nnc[n-]1
viscosity: 209 ± 7 mPa·s
--
mol.smiles: CC(=O)CC(C)C
viscosity: 0.42 ± 0.03 mPa·s
--
mol.smiles: CCCCCCO
viscosity: 2.2 ± 0.4 mPa·s

Turning now to a further compound:
So what's the measured viscosity for this one? CC(C)CC(=O)CC(C)C
0.67 ± 0.02 mPa·s

====

details: 293.15 K; 100 kPa
metric: viscosity (mPa·s)
The reply should be a number in mPa·s, with the unit left off.

mol.smiles: CCCCCCCCCCCCCC[P+](CCCCCC)(CCCCCC)CCCCCC.c1nnc[n-]1
viscosity [mPa·s]: 1320
//
mol.smiles: CC(C)CC(=O)CC(C)C
viscosity [mPa·s]: 0.95
//
mol.smiles: CC(=O)CC(C)C
viscosity [mPa·s]: 0.59

Turning now to a further molecule:
So what's the measured viscosity for this one? CCC12CC3CC(CC(C3)C1)C2
6.43
